All values here come from patent US20110229461A1.

Recorded EC50, one value per entry.
target: T1, human PD-1 on cells (transfected HEK293 cells; human T cells) (human, UniProt Q15116 25-288); assay: flow cytometry on activated human T cells
T1 construct: whole, on cells; HEK293 cells transiently transfected with human PD-1 DNA; also called PD-1 expressing HEK293 cells; PD-1 transfected HEK cells
T1 sequence (Q15116 25-288): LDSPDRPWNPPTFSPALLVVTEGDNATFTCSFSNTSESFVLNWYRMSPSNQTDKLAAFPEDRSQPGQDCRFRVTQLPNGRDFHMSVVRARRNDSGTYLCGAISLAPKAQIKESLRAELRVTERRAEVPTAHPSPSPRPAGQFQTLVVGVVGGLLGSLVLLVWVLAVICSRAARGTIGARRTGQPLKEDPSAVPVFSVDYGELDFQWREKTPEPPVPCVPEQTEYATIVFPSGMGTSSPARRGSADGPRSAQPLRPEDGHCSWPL
Your answer is read as µg/mL, so omit the unit and give the number.

Reference set, count: 3
[[record]]
binder = "949 VK1 gL15 gH20b (antibody, V domains shown, Humanised; also called Transient #5) VH: EVQLVQSGAEVKKPGSSVKVSCKASGYTFTTYPIEWVRQAPGQGLEWMGNFHPYNDDTKYNEKFKGRVTITADKSTSTAYMELSSLRSEDTAVYYCARENYGSHGGFVYWGQGTLVTVS VL: ENVLTQSPFSLSASVGDRVTITCRASSSVISSYLHWYQQKPAKAPKLFIYSTSNLASGVPSRFSGSGSGTDYTLTISSLQPEDFATYYCQQYNSYPLTFGGGTKVEIK"
experimental_endpoint = "EC50"
assay_value = 4.1

[[record]]
binder = "949 VK1 gL15 gH20a (antibody, V domains shown, Humanised; human kappa constant (Km3); also called Transient #4) VH: EVQLVQSGAEVKKPGASVKVSCKAFGYTFTTYPIEWVRQAPGQGLEWMGNFHPYNDDTKYNEKFKGRVTMTRDTSTSTVYMELSSLRSEDTAVYYCARENYGSHGGFVYWGQGTLVTVS VL: ENVLTQSPFSLSASVGDRVTITCRASSSVISSYLHWYQQKPAKAPKLFIYSTSNLASGVPSRFSGSGSGTDYTLTISSLQPEDFATYYCQQYNSYPLTFGGGTKVEIK"
experimental_endpoint = "EC50"
assay_value = 2.89

[[record]]
binder = "949 VK1 gL15 gH8b (antibody, V domains shown, Humanised; human kappa constant (Km3); also called Transient #3) VH: EVQLVQSGAEVKKPGSSVKVSCKAFGYTFTTYPIEWMRQAHGQGLEWIGNFHPYNDDTKYNEKFKGRVTITADKSTSTAYMELSSLRSEDTAVYYCARENYGSHGGFVYWGQGTLVTVS VL: ENVLTQSPFSLSASVGDRVTITCRASSSVISSYLHWYQQKPAKAPKLFIYSTSNLASGVPSRFSGSGSGTDYTLTISSLQPEDFATYYCQQYNSYPLTFGGGTKVEIK"
experimental_endpoint = "EC50"
assay_value = 6.09


Memo: 949 VK1 gL15 gH8a (antibody, V domains shown, Humanised; human kappa constant (Km3); also called Transient #2) VH: EVQLVQSGAEVKKPGASVKVSCKAFGYTFTTYPIEWMRQAHGQGLEWIGNFHPYNDDTKYNEKFKGRVTMTRDTSTSTVYMELSSLRSEDTAVYYCARENYGSHGGFVYWGQGTLVTVS VL: ENVLTQSPFSLSASVGDRVTITCRASSSVISSYLHWYQQKPAKAPKLFIYSTSNLASGVPSRFSGSGSGTDYTLTISSLQPEDFATYYCQQYNSYPLTFGGGTKVEIK , reported EC50: 3.15

Memo: 949 VK1 gL9 gH20b (antibody, V domains shown, Humanised; human kappa constant (Km3); also called Transient #1) VH: EVQLVQSGAEVKKPGSSVKVSCKASGYTFTTYPIEWVRQAPGQGLEWMGNFHPYNDDTKYNEKFKGRVTITADKSTSTAYMELSSLRSEDTAVYYCARENYGSHGGFVYWGQGTLVTVS VL: ENVLTQSPFSLSASVGDRVTITCRASSSVISSYLHWYQQKPAKAPKLFIYSTSNLASGVPSRFSGSGSGTDYTLTISSLQPEDFATYYCQQYNGYPLTFGGGTKVEIK , reported EC50: 1.14
